Every entry's value here was drawn from patent US20050152898A1.

Molecular target: T1, CD52 human leukocyte antigen (human, UniProt P31358 25-36)
T1 construct: whole, on cells; also called CD52 antigen
T1 chain (looked up): GQNDTSQTSSPS
Test: FACS on HUT-78 cells (CD52+), FITC anti-human IgG Fc, median fluorescence, 4-parameter fit; titre = 50% of maximum binding
# key: entry, value: EC50
// note: answer is a bare numeric in mg/L

Example results:
binder	parameter	output-unit	experimental-value
DIVH2/DIVK1 (antibody, human IgG1, V domains shown, also called DIVHv2/DIVKv1) VH: EVQLLESGGGLVQPGGSLRLSCAGSGFTFTDFYMNWIRQPPGKAPEWIGFIRDKAKGYTTEYNPSVKGRFTISRDNSKNTLYLQMNSLRAEDTAVYYCAREGHTAAPFDYWGQGTLVTVSS VL: DIQMTQSPSSLSASVGDRVTITCRASQNIDKYLNWYQQKPGKAPKSLIYNTNNLQSGVPSRFSGSGSGTDFTLTISSLQPEDIATYYCLQHISRPRTFGTGTKLELK	EC50	mg/L	5.56
DIVH3/DIVK1 (antibody, human IgG1, V domains shown, also called DIVHv3/DIVKv1) VH: EVKLQESGGGLVQPGGSMRISCSGSGFTFTDFYMNWIRQPPGKGPEWIGFIRDKAKGYTTEYNPSVKGRFTISRDNTQNTLHLQANTLRAEDTAVYYCAREGHTAAPFDYWGQGTTVTVSS VL: DIQMTQSPSSLSASVGDRVTITCRASQNIDKYLNWYQQKPGKAPKSLIYNTNNLQSGVPSRFSGSGSGTDFTLTISSLQPEDIATYYCLQHISRPRTFGTGTKLELK	EC50	mg/L	9.6

[ask] Which EC50 value belongs to DIVH5/DIVK1 (antibody, human IgG1, V domains shown, also called DIVHv5/DIVKv1) VH: EVQLLESGGGLVQPGGSLRLSCAGSGFTFTDFYMNWIRQPPGKAPEWLGFIRDKAKGYTTEYNPSVKGRFTISRDNSKNTLYLQMNSLRAEDTAVYYCAREGHTAAPFDYWGQGTLVTVSS VL: DIQMTQSPSSLSASVGDRVTITCRASQNIDKYLNWYQQKPGKAPKSLIYNTNNLQSGVPSRFSGSGSGTDFTLTISSLQPEDIATYYCLQHISRPRTFGTGTKLELK ?
[reply] 4.01

[ask] Which EC50 value belongs to DIVH1/DIVK4 (antibody, human IgG1, V domains shown, also called DIVHv1/DIVKv4) VH: EVQLLESGGGLVQPGGSLRLSCAGSGFTFTDFYMNWVRQAPGKGLEWVGFIRDKAKGYTTEYNPSVKGRFTISRDNSKNTLYLQMNSLRAEDTAVYYCAREGHTAAPFDYWGQGTLVTVSS VL: DIQMTQSPSSLSASVGDRVTITCKASQNIDKYLNWYQQKPGKAPKSLIYNTNNLQTGVPSRFSGSGSGTDFTLTISSLQPEDIATYYCLQHISRPRTFGTGTKLELK ?
[reply] 3.45

[ask] Which EC50 value belongs to DIVH4/DIVK3 (antibody, human IgG1, V domains shown, also called DIVHv4/DIVKv3) VH: EVQLLESGGGLVQPGGSLRLSCAGSGFTFTDFYMNWVRQAPGKGLEWVGFIRDKAKGYTTEYNPSVKGRFTISRDNAKNSLYLQMNSLRAEDTAVYYCAREGHTAAPFDYWGQGTLVTVSS VL: DIQMTQSPSSLSASVGDRVTITCRASQNIDKYLNWYQQKPGKAPKLLIYNTNNLQSGVPSRFSGSGSGTDFTLTISSLQPEDIATYYCLQHISRPRTFGTGTKLELK ?
[reply] 2.28

[ask] Which EC50 value belongs to DIVH2/DIVK4 (antibody, human IgG1, V domains shown, also called DIVHv2/DIVKv4) VH: EVQLLESGGGLVQPGGSLRLSCAGSGFTFTDFYMNWIRQPPGKAPEWIGFIRDKAKGYTTEYNPSVKGRFTISRDNSKNTLYLQMNSLRAEDTAVYYCAREGHTAAPFDYWGQGTLVTVSS VL: DIQMTQSPSSLSASVGDRVTITCKASQNIDKYLNWYQQKPGKAPKSLIYNTNNLQTGVPSRFSGSGSGTDFTLTISSLQPEDIATYYCLQHISRPRTFGTGTKLELK ?
[reply] 6.21

[ask] Which EC50 value belongs to DIVH5/DIVK5 (antibody, human IgG1, V domains shown, also called DIVHv5/DIVKv5) VH: EVQLLESGGGLVQPGGSLRLSCAGSGFTFTDFYMNWIRQPPGKAPEWLGFIRDKAKGYTTEYNPSVKGRFTISRDNSKNTLYLQMNSLRAEDTAVYYCAREGHTAAPFDYWGQGTLVTVSS VL: DIQMTQSPSSLSASVGDRVTITCKASQNIDKYLNWYQQKPGKSPKLLIYNTNNLQTGVPSRFSGSGSGTDFTLTISSLQPEDIATYYCLQHISRPRTFGTGTKLELK ?
[reply] 3

[ask] Which EC50 value belongs to DIVH5/DIVK4 (antibody, human IgG1, V domains shown, also called DIVHv5/DIVKv4) VH: EVQLLESGGGLVQPGGSLRLSCAGSGFTFTDFYMNWIRQPPGKAPEWLGFIRDKAKGYTTEYNPSVKGRFTISRDNSKNTLYLQMNSLRAEDTAVYYCAREGHTAAPFDYWGQGTLVTVSS VL: DIQMTQSPSSLSASVGDRVTITCKASQNIDKYLNWYQQKPGKAPKSLIYNTNNLQTGVPSRFSGSGSGTDFTLTISSLQPEDIATYYCLQHISRPRTFGTGTKLELK ?
[reply] 4.05
